Test system: RSV A2 strain
Assay: In vitro CPE (CytoPathic Effect) inhibition effect evaluation test, RSV type A
Format: cell-based
Conditions: human respiratory syncytial virus; inhibitory effect against RSV type A (RSV A2 strain), HEp-2 cells, CPE inhibition; read-out: EC50

>  <MOLECULE>
Cn1cc(-c2ncc(C(=O)NC3(C(=O)O)CCCCC3)c(C(F)(F)F)n2)c2ccc(OCCC3CCOCC3)cc21

>  <TESTED SYSTEM>
RSV A2 strain

>  <EC50>
10 to 100 nM

$$$$
>  <MOLECULE>
CCC(CC)n1cc(-c2ncc(C(=O)NC3(C(=O)O)C4CC5CC(C4)CC3C5)c(C(F)(F)F)n2)c2ccc(O[C@H]3CC[C@H](N4CC(F)(F)C4)CC3)cc21 (stereo partly drawn)

>  <TESTED SYSTEM>
RSV A2 strain

>  <EC50>
< 10 nM

$$$$
>  <MOLECULE>
COC1(C)CCC(Oc2ccc3c(-c4ncc(C(=O)NC5(C(=O)O)C6CC7CC(C6)CC5C7)c(C(F)(F)F)n4)cn(C4CCC(F)(F)CC4)c3c2)CC1 (stereo not drawn)

>  <TESTED SYSTEM>
RSV A2 strain

>  <EC50>
< 10 nM

$$$$
>  <MOLECULE>
O=C(NC1(C(=O)O)C2CC3CC(C2)CC1C3)c1cnc(N2CC3(CCOCC3)c3cc(OC4CCN(c5ncccn5)CC4)ccc32)nc1C(F)(F)CO (stereo not drawn)

>  <TESTED SYSTEM>
RSV A2 strain

>  <EC50>
< 10 nM

$$$$
>  <MOLECULE>
CC(F)(F)c1nc(N2CC3(CCOCC3)c3cc(-n4ncc5c4CCN(CC(F)(F)F)C5)ccc32)ncc1C(=O)NC1(C(=O)O)C2CC3CC(C2)CC1C3 (stereo not drawn)

>  <TESTED SYSTEM>
RSV A2 strain

>  <EC50>
< 10 nM

$$$$
>  <MOLECULE>
CC(F)(F)c1nc(N2CC3(CCCCC3)c3cc(OC4CCN(c5ncc(F)cn5)CC4)ncc32)ncc1C(=O)N[C@]1(C(=O)O)[C@@H]2CC3C[C@H]1C[C@@](F)(C3)C2

>  <TESTED SYSTEM>
RSV A2 strain

>  <EC50>
< 10 nM

$$$$
